- target: CLK2 kinase (Homo sapiens)
- Sequence (P49760 whole entry): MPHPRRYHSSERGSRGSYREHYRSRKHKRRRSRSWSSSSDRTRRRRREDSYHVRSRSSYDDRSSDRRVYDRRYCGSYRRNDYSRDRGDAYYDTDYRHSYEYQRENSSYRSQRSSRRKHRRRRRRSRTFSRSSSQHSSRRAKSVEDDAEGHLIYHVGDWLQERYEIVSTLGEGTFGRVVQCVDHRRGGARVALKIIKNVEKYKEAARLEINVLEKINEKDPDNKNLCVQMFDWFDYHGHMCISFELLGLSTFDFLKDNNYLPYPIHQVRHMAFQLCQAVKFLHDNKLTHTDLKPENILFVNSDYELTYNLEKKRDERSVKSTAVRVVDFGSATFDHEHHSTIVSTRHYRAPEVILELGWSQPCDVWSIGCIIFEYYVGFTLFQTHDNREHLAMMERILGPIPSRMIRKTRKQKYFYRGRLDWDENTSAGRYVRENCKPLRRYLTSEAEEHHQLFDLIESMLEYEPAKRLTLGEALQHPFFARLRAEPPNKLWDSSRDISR
- test-protocol: CLK2 kinase activity assay (Z-lyte FRET);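 also: FRET read-out as coumarin to fluorescein emission ratio, unphosphorylated peptide as 0% and phosphorylated peptide as 100% controls, duplicate reactions, non-linear regression fit of dose-response curves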
- condition: Z-lyte Ser/Thr 6 peptide, 60 μM ATP, 1 h at room temperature
quantity: EC50

Record excerpt, results attached:
structure-notation: CC(C)Oc1ccc(NC(=O)c2n[nH]c3ccc(-c4cncc(CN5CC6CC(C5)O6)c4)cc23)cn1
target: CLK2 kinase (Homo sapiens)
quantity: EC50
obs-value: 2 nM
//
structure-notation: Cc1ccc(-c2nccc3[nH]c(-c4n[nH]c5ccc(-c6cncc(N)c6)nc45)nc23)s1
target: CLK2 kinase (Homo sapiens)
quantity: EC50
obs-value: 1 nM
//
structure-notation: CC(C)C(=O)Nc1cncc(-c2cnc3[nH]nc(-c4cc5c(-c6cc(F)cc(CNS(C)(=O)=O)c6)cncc5[nH]4)c3c2)c1
target: CLK2 kinase (Homo sapiens)
quantity: EC50
obs-value: 18 nM

Proceed to the following item.
Provide the documented EC50 with CLK2 kinase (Homo sapiens) as the system for CC(C)C(=O)Nc1cncc(-c2ccc3[nH]nc(-c4cc5c(N6CCN(C)CC6)nccc5[nH]4)c3c2)c1 11 nM

Values were extracted from patent US20230000842A1.
